- SYSTEM_NAME: human activated kallikrein enzyme (Homo sapiens, UniProt P03952)
- Sequence (P03952 391-638 limits assumed): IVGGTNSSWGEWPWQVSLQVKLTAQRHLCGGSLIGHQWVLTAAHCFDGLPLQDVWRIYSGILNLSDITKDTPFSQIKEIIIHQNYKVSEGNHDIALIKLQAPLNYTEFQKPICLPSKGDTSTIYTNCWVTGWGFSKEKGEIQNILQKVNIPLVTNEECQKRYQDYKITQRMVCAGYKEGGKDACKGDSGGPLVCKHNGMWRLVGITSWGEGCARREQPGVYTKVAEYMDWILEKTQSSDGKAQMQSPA
- Sequence (P03952 20-390 partner limits assumed): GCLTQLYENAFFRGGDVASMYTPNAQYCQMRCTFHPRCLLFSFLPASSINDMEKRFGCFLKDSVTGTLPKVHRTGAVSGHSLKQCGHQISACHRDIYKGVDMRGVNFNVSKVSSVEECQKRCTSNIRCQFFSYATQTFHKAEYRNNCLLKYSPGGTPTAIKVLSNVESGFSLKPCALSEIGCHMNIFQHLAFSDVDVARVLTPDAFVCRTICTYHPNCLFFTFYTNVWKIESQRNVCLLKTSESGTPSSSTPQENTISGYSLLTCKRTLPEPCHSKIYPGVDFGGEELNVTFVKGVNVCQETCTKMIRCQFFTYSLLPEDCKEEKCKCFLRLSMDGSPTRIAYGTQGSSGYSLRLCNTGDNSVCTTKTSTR
- METHOD: Inhibition of human activated plasma kallikrein, fluorogenic PFR-AMC substrate, 500 pM enzyme format
- Assay type: biochemical
- CONDITION_SUMMARY: 500 pM activated kallikrein; 300 μM PFR-AMC; 30 min preincubation; 10 min room temperature; pH 7.5; read-out: Primary Dose Response Assay: Average EC50
- Procedure: Compounds were evaluated for inhibition of the human activated kallikrein enzyme in two formats of an assay employing a fluorogenic peptide substrate. […] After initiation with substrate, reactions were incubated for 10 min at room temperature and fluorescence emission at 460 nm from 380 nm excitation measured with a microplate reader. […]
Counter-ions that a name gives are not always drawn.
MEASURED_PARAMETER: EC50

Cc1cc2c(N)nccc2c(C)c1CNC(=O)c1cnn(Cc2ccc3c(-c4ccccn4)cccc3c2)c1 [Example 114] ... < 0.001 µM
CCOC(=O)CCc1nc(NCc2c(C)cc3c(N)nccc3c2C)cc(OCc2nc3ccc(C4CC4)cn3n2)n1 [Example 292] ... 0.01 to 0.1 µM
Cc1cc2c(N)nccc2c(C)c1CNc1cc(OCc2cn3cc(C4CC4)cc(C4(O)COC4)c3n2)ncn1 [Example 250] ... < 0.001 µM
Cc1cc2c(N)nccc2c(C)c1CNc1cc(NCc2ccc3c(c2)N(C)C(=O)CO3)ncn1 [Example 327, formic acid salt] ... 0.001 to 0.01 µM
Cc1cc(CNc2cc(NCc3c(C)cc4c(N)nccc4c3C)ncn2)cc(C)c1Cn1cccn1 [Example 367] ... < 0.001 µM
Cc1cc2c(N)nccc2c(C)c1CNC(=O)c1cnn(Cc2nc3ccccc3n2C(C)C)c1 [Example 71] ... 0.1 to 1 µM
Cc1cnn(Cc2ccc(Cn3cc(C(=O)NCc4c(C)cc5c(N)nccc5c4C)c(C(F)(F)F)n3)cc2)c1 [Example 184] ... < 0.001 µM

Attention now turns to another entry.
Request the reported EC50 associated with Cc1cc2c(N)nccc2c(C)c1CN1C(=O)c2ncc(NCc3cn4cc(C5CC5)ccc4n3)cc21 [Example 496]
0.1 to 1 µM

Data origin: patent US20260374754A1
